These data points were gathered from PubChem BioAssay (NCI).

Assay: NCI Yeast Anticancer Drug Screen. Data for the rad50 strain (AID 155);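 also: 0% = growth of vehicle-only cultures of the same strain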
Details: S. cerevisiae rad50 strain growth inhibition; at 50.0 µM (retest, dose inferred, filed as 5.0); hits give high values
Experimental: Growth inhibition of yeast strains with defined genetic alterations is measured as a screen for potential anti-cancer activity. Selected strains with alterations in DNA damage repair or cell cycle control were exposed to compounds and growth inhibition was measured relative to vehicle treated controls. The strain used in this assay is rad50
Compounds without any hit were thinned out: in the full panel of roughly 79,000, 15% have a hit.
Measured growth inhibition of individual entries
readout-kind: growth inhibition (%)

compound | readout-kind | test-value
COc1ccc(C2=CCC3C4CC=C5CC(O)CCC5(C)C4CCC23C)s1 (stereo unspecified) | growth inhibition | 13
CCCCC#CC(=O)OCCCCC | growth inhibition | 0
O=C1C(=O)c2ccccc2C=C1C1CCCCC1 | growth inhibition | 64
N#CC1=CN(Cc2ccccc2)C(C#Cc2ccccc2)C=C1 (stereo unspecified) | growth inhibition | -1
Nc1ccc2nnnn2c1 | growth inhibition | 72
O=[N+]([O-])c1ccc(NS(=O)(=O)c2ccccc2)c(NS(=O)(=O)c2ccccc2)c1 | growth inhibition | 75
CCOC(=O)c1ccc(NC(=O)CCl)cc1 | growth inhibition | 99
Clc1ccc(Cl)c(SCCCN2CCNCC2)c1 | growth inhibition | 65
COc1ccc(C2COc3c(ccc(O)c3O)C2)cc1OC (stereo unspecified) | growth inhibition | 28
CN(C)c1ccc(C(O)(Cc2cccnc2)c2ccc(N(C)C)cc2)cc1 | growth inhibition | 2
CS(=O)(=O)OCCN(CCOS(C)(=O)=O)c1ccc(N=Nc2ccccc2)cc1 | growth inhibition | 82
Cc1ccnc(NCCN(C)C)c1 | growth inhibition | -1
O=S(=O)(NC1CCCCC1)c1ccc2c(c1)OCCOCCOCCOCCO2 | growth inhibition | 22
c1ccc2cc3nc4ccccc4nc3cc2c1 | growth inhibition | 82
C/C(=N/O)c1cccc(C(F)(F)F)c1 | growth inhibition | -146
CCOC(=O)N(c1ccccc1)N(CC)C(=O)/C(C)=N/Nc1ccc([N+](=O)[O-])cc1 | growth inhibition | 93
C=C(C)[P+](C)(c1ccccc1)c1ccccc1 | growth inhibition | 25
Nc1nc(=O)[nH]c([O-])c1N=O.Nc1nc(=O)[nH]c([O-])c1N=O.[Ag+].[Ag+] | growth inhibition | -25
CS(=O)(=O)OCCN(CCOS(C)(=O)=O)c1ccc(C=Nc2ccc3oc(=O)ccc3c2)cc1 | growth inhibition | 97
CC(Br)C(=O)c1ccc(OCc2ccccc2)cc1 (stereo unspecified) | growth inhibition | 84
CCC(C)(C)NCCCCCNc1cc(OC)cc2cccnc12 | growth inhibition | 67
OCC1CCc2[nH]c3ccccc3c2C1 (stereo unspecified) | growth inhibition | -160
Nc1ccc2c(SCC(=O)Nc3ccccc3-c3ccccc3NC(=O)CSc3c4ccccc4nc4cc(N)ccc34)c3ccccc3nc2c1 | growth inhibition | 97
CC(C)C(OC(=O)c1ccc(NCC2=CC(=O)C=CC2=O)cc1)C(C)C | growth inhibition | 37
CCCCCCc1ccc(O)c(Cl)c1 | growth inhibition | 28
CCCC(C)c1ccc(O)cc1 (stereo unspecified) | growth inhibition | 13
Oc1ccc(N=Nc2ccccc2)c(O)c1.Oc1ccc(N=Nc2ccccc2)c(O)c1.[Cu] | growth inhibition | 96
Cc1cccc(NC(=O)CCc2ccc(Cl)cc2)n1 | growth inhibition | 1
O=C1C(Cl)=CC(=NCl)C=C1Cl | growth inhibition | 83
[N-]=[N+]=Nc1ccc(SN2C(=O)c3ccccc3C2=O)cc1 | growth inhibition | 98
CCCCCN1C(=O)CC(C(=O)OCC)=C1C | growth inhibition | -14
COc1cc(N=Nc2ccccc2)cc(/C=N/NC(N)=S)c1O | growth inhibition | 46
Cc1ccccc1SCc1nc2ccccc2c(C)[n+]1[O-] | growth inhibition | 73
N#Cc1c(-c2ccc(Cl)cc2)c2c(n(C3OC(CO)C(O)C(O)C3O)c1=S)CCCC2 (stereo unspecified) | growth inhibition | 88
CC(Nc1cc(Cl)cc(Cl)c1)c1ccncc1 (stereo unspecified) | growth inhibition | 98
O=C1C(=O)C(Cl)=C(Cl)C(Cl)=C1Cl | growth inhibition | 97
O=C(CNC(=O)Nc1ccc(NC(=O)NCC(=O)Nc2ccc(C3=NCCN3)cc2)cc1)Nc1ccc(C2=NCCN2)cc1 | growth inhibition | -2
CN(C)CCCN1c2cc(Cl)ccc2Sc2ccc3ccccc3c21 | growth inhibition | 98
O=S(NCc1ccccc1)c1ccccc1 (stereo unspecified) | growth inhibition | 13
O=[N+]([O-])c1cc(CNCCO)c(O)c2ncccc12 | growth inhibition | 99
OCC(O)C(O)C(/C=N/Nc1ccccc1)=N/Nc1ccccc1 (stereo unspecified) | growth inhibition | 45
COc1cc(C/C=C/c2ccccc2)c(OC)cc1O | growth inhibition | 30
COc1ccc(C(c2cc3c(cc2O)OCO3)N2CCCC2)c(OC)c1 (stereo unspecified) | growth inhibition | 96
CO[C@H]1C[C@@H]2CC[C@@H](C)[C@@](O)(O2)C(=O)C(=O)N2CCCC[C@H]2C(=O)O[C@H]([C@H](C)C[C@@H]2CC[C@@H](OC(=O)C(C)(CO)CO)[C@H](OC)C2)CC(=O)[C@H](C)/C=C(\C)[C@@H](O)[C@@H](OC)C(=O)[C@H](C)C[C@H](C)/C=C/C=C/C=C/1C | growth inhibition | 97
Nc1ccc2c(c1)CN1C(=O)c3ccccc3C1=N2 | growth inhibition | 54
Cc1ccc(CN2CC(=O)N3Cc4ccccc4CN3C(=O)C2)cc1 | growth inhibition | -3

* * *

The molecules listed here are annotated with their growth inhibition.
Assay: NCI Yeast Anticancer Drug Screen. Data for the mec2-1 strain (AID 157)
Conditions: S. cerevisiae mec2-1 strain, at 50.0 µM, hits give high values
About 79,000 compounds went through this panel and 15% of them were active in at least one assay; those are over-represented in the sample as a whole. Active and inactive are the calls of the source. Cut-off read from the data, not from the text of the source: active = growth inhibition above about 70%; inactive = the rest.
readout-kind: growth inhibition

molecule | test-value
Cc1nc(-c2cccc(Cl)c2)oc1-c1ccccc1 | 27.8% (inactive)
CC1=CC(O)(c2nc3ccccc3s2)CC(C)(C)C1 (stereo not drawn) | 56.1% (inactive)
O=[N+]([O-])C1(CO)COC(CCc2ccccc2)OC1 (stereo not drawn) | 78.2% (active)
CC1(C)NNC(=S)NN1 | 15.4% (inactive)
Cc1nc2c([N+](=O)[O-])c(N3CCCCC3)c([N+](=O)[O-])cc2[nH]1 | 99% (active)
CCOC(=O)C1=C(c2ccccc2)c2ccccc2OC1C(=O)O (stereo not drawn) | 14.8% (inactive)
CCC[CH2][Sn]([Cl])([CH2]CCC)[S]/C(C#N)=N/N=C/c1ccc(N(C)C)cc1 | 98.8% (active)
Oc1ccc2c(ccc3ccccc32)c1 | 97.3% (active)
CC(C)=CCC(CC=C(C)C)c1ccncc1 (tested in a mixture with another compound) | 99.5% (active)
COc1cccc(C2c3cc4c(cc3OC(N3CCCC3)C2c2ccccc2)OCO4)c1O (stereo not drawn) | 13% (inactive)
COC(=O)c1ccccc1C(=O)c1cc(OC)c2c(c1OC)CCCC2 | 94.5% (active)
O=C(Nc1cccc(C(F)(F)F)c1)c1cc(Br)cc(Br)c1O | 62.6% (inactive)
CC(C)N=Cc1cc(I)cc(I)c1O.CC(C)N=Cc1cc(I)cc(I)c1O.[Co] | 97.6% (active)
COc1ccc(C(=O)C(CN2CCOCC2)CN2CCOCC2)cc1 | 97.2% (active)
O=C1Oc2ccccc2C(=O)/C1=C/N1C(=O)/C(=C/c2ccc([N+](=O)[O-])cc2)SC1=S | 90% (active)
COC(=O)N1C2C=CC(=O)C(C=C2)N1C(=O)OC (stereo not drawn) | 53.2% (inactive)
CN(C)c1ncnc2c1ncn2C | 61.4% (inactive)
Nc1ccc(Oc2ccc(-c3ccccc3)cc2)c(Cl)c1 | 98.3% (active)
Cc1ccc(S(=O)(=O)/C=C/C(=O)c2ccc3ccccc3c2)cc1 | 98.4% (active)
O=C1OCCN1/N=C/c1ccc([N+](=O)[O-])o1 | 54.1% (inactive)
CCCCN=C(c1ccc(O)cc1)c1ccc(OC)cc1O | 18.6% (inactive)
CCCCCCCCCCCCSC1=C(N)C(=O)c2ccccc2C1=O | 11.1% (inactive)
O=[N+]([O-])c1cc(F)c(Sc2cc(Br)c([N+](=O)[O-])cc2F)cc1Br | 9.55% (inactive)

* * *

Test: NCI Yeast Anticancer Drug Screen. Data for the cln2 rad14 strain (AID 165);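 also: 0% = growth equal to vehicle treated cultures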
Settings: S. cerevisiae cln2 rad14 strain, at 5.0 µM (retest, dose inferred, filed as 0.5), hits give high values
About 79,000 compounds went through this panel and 15% of them were active in at least one assay; those are over-represented in the sample as a whole.
A collection of compounds and their measured growth inhibition
readout-kind: growth inhibition (%)

compound | readout-kind | test-value
C[n+]1c(/C=C/c2ccccc2Cl)sc2ccccc21 | growth inhibition | 59
Cc1cccc(NC(=O)C(=O)C(C2OC(=O)c3ccccc32)[N+](=O)[O-])c1C (configuration not stated) | growth inhibition | 27
COC(=O)C(=O)C(C(=O)C(=O)Nc1ccc(C)cc1C)c1nc2ccccc2[nH]c1=O (configuration not stated) | growth inhibition | 5
O=[N+]([O-])c1cnc(F)c(Br)c1 | growth inhibition | 98
[Cl][Sn]1([Cl])[CH2]CC[CH2][Sn]([Cl])([Cl])[CH2]CC[CH2][Sn]([Cl])([Cl])[CH2]CC[CH2][Sn]([Cl])([Cl])[CH2]CC[CH2]1 | growth inhibition | -6
O=C(CCc1c[nH]c2ccccc12)c1ccccc1O | growth inhibition | -13
O=C1c2cccc3cc([N+](=O)[O-])cc(c23)C(=O)N1O | growth inhibition | 20
O=C1CSC2(CCN(CCCN3c4ccccc4Sc4ccc(Cl)cc43)CC2)N1 | growth inhibition | -11
CCOC(=O)c1cc(C)ccc1-c1ccc(C)cc1C(=O)OCC | growth inhibition | -1
COc1ccc2c(c1OC)C1=C(C2=O)c2cc3c(cc2CCN1)OCO3 | growth inhibition | 2
Cc1nc(C(N)=S)sc1C(=O)CC(=O)C(=O)Nc1nc2ccccc2[nH]1 | growth inhibition | 7
COc1ccccc1C1c2cc3c(cc2OC2(OC)COC(=O)C12)OCO3 (configuration not stated) | growth inhibition | 20
CCCCCCCCCCCCCCCBr | growth inhibition | -5
O=C(NCCCl)N1CCC(CN=c2cc3n(-c4ccc(Cl)cc4)c4ccccc4nc-3cc2Nc2ccc(Cl)cc2)CC1 | growth inhibition | -56
CCCCCCCCCCCC(=O)[O][Sn]([CH2]C)([CH2]C)[O]C(=O)CCCCCCCCCCC | growth inhibition | 5
O=C1OCCCOC(=O)c2cc(ccc2O)OCC#CC#CCOc2ccc(O)c1c2 | growth inhibition | 4
Cn1c(=O)[nH]c2nnc(-c3ccccc3)nc2c1=O | growth inhibition | -3
OCCc1cccc2ccc3ccccc3c12 | growth inhibition | -1
CC1CCCN(CC(O)CN2CCCc3ccccc32)C1 (configuration not stated) | growth inhibition | 26
O=c1c2ccccc2ncn1Cc1ccccc1[N+](=O)[O-] | growth inhibition | -11
COC(=O)C(=O)C(C(=O)c1ccc(F)cc1)c1nc2n(c1O)C(=N)N=N2 (configuration not stated) | growth inhibition | 14
Cc1ccc(C(=O)C(F)(F)F)cc1 | growth inhibition | -60
